These measurements were taken from patent US20230150951A1.

# System: IL-21
# Protocol description: Cytokine release after LPS induction on human whole blood: IL-21
# Format: cell-based
# Reported conditions: human whole blood, inhibition of LPS induced inflammation; read-out: IC50 IL-21
Recorded pIC50 values for a group of molecules are listed next.
Please report pIC50 as the negative decimal logarithm of the molar concentration, giving only the number.

Worked cases, pIC50 given:
> print(dat)
                                   molecule  measured.value
1  O=C(O)c1cc(O)cc(CS(=O)(=O)Cc2cc(O)cc(C(=O)O)c2O)c1O [IVc-059a]            5.73
2  O=C(O)c1cc(O)c(CN(Cc2cc(O)c(C(=O)O)cc2O)Cc2cc(O)c(C(=O)O)cc2O)cc1O [IIIc-061a]            5.20

Kindly indicate its recorded pIC50. Item: O=C(O)c1cc(O)ccc1NC(=O)c1cc(O)cc(C(=O)Nc2ccc(O)cc2C(=O)O)c1O [IIc-009a]
5.10

Specify pIC50 for O=C(O)c1cc(O)cc(CSCc2cc(O)cc(C(=O)O)c2O)c1O [IVc-058a] and stop.
5.49

Please look at this molecule and report its pIC50: O=C(O)Cc1cc(O)c(C(=O)Nc2c(C(=O)O)cccc2C(=O)O)cc1O [IIIa-013a]
5.79
